Each entry below lists one item and its recorded MIC value.
- Test system: Aspergillus niger
- protocolNotes: Antifungal activity against Aspergillus niger NCIM 1196 by agar dilution method
- Assay type: functional
In your response, put the unit directly after the numeric value.

// solved cases for MIC follow
>  <compound>
COC(=O)C1=C(C(=O)OC)N(c2cccc([N+](=O)[O-])c2)CN(c2cccc([N+](=O)[O-])c2)C1

>  <MIC>
100 µg/mL

$$$$
>  <compound>
CCOC(=O)C1=C(C(=O)OCC)N(c2cccc([N+](=O)[O-])c2)CN(c2cccc([N+](=O)[O-])c2)C1

>  <MIC>
100 µg/mL

$$$$

Please give the measured MIC for this compound: "OC(Cn1cncn1)(Cn1cncn1)c1ccc(F)cc1F" 25 µg/mL

Please give the measured MIC for this compound: "CCOC(=O)C1=C(C(=O)OCC)N(c2ccccn2)CN(c2ccccn2)C1" 25 µg/mL

// provenance: ChEMBL document CHEMBL2390854
